target: SARS-CoV-2 Mpro (3CL protease) (Severe acute respiratory syndrome coronavirus 2, UniProt P0DTD1); construct: gene rep; assay: fluorogenic substrate 3CL protease assay kit; type: biochemical; settings: read-out: IC50 (μg ml^-1) (converted)
parameter_measured: IC50 (µM)
Give the value, in units of µM, as a plain number.

The measured IC50 associated with COc1ccccc1OCCNCC(O)COc1cccc2[nH]c3ccccc3c12 (stereo not shown) reads 503

The measured IC50 associated with Cc1cccc(C)c1OCC(=O)N[C@@H](Cc1ccccc1)[C@@H](O)C[C@H](Cc1ccccc1)NC(=O)[C@H](C(C)C)N1CCCNC1=O reads 117

The measured IC50 associated with OC(CNCC(O)C1CCc2cc(F)ccc2O1)C1CCc2cc(F)ccc2O1 (stereo not shown) reads 148

The measured IC50 associated with CC(C)NCC(O)COc1ccc(COCCOC(C)C)cc1 (stereo not shown) reads 364
